Values compiled from paper PMC11876601.

# System: FAMPAC
# experiment summary: cells
# Parameters: ATPlite luminescence viability of PDAC cell lines, 11-dose single-agent curves, 4-parameter fit
# condition details: 72 h, read-out: EC50 [nM]
# Excerpt: Afterward, small amounts were transferred to 384-well intermediate plates (Greiner Bio-One GmbH, Germany). […] Next, we analyzed the drug sensitivity of immortalized duct cell line HPDE to detect effects unrelated to pancreatic cancer.
assay metric: EC50

Ask: Item under review: COc1cc2/c(=N/c3ccc(Br)cc3F)nc[nH]c2cc1OCC1CCN(C)CC1 [Vandetanib] . Reported EC50?
Reply: > 10000 nM

Ask: Also check CN(C)C[C@@H]1CCn2cc(c3ccccc32)C2=C(C(=O)NC2=O)c2cn(c3ccccc23)CCO1 [Ruboxistaurin]
Reply: > 10000 nM

Ask: Also check N#CCNC(=O)c1ccc(-c2ccnc(Nc3ccc(N4CCOCC4)cc3)n2)cc1 [Momelotinib]
Reply: > 10000 nM

###

# System: FAMPAC
# experiment summary: cells
# Set-up: ATPlite luminescence viability of PDAC cell lines, 11-dose single-agent curves, 4-parameter fit
# condition details: 72 h, read-out: EC50 [nM]
assay metric: EC50

Ask: Item under review: "CNC(=O)c1cc(Oc2ccc(NC(=O)Nc3ccc(Cl)c(C(F)(F)F)c3)cc2)ccn1" . Reported EC50?
Reply: > 10000 nM

Ask: Also check "CNC(=O)c1cc(Oc2ccc(NC(=O)Nc3ccc(Cl)c(C(F)(F)F)c3)c(F)c2)ccn1"
Reply: > 10000 nM

Ask: Also check "COC(=O)c1ccc2c(c1)NC(=O)/C2=C(\Nc1ccc(N(C)C(=O)CN2CCN(C)CC2)cc1)c1ccccc1"
Reply: > 10000 nM

###

# System: BxPC-3
# experiment summary: cells
# Parameters: ATPlite luminescence viability of PDAC cell lines, 11-dose single-agent curves, 4-parameter fit
# condition details: Homo sapiens, BXPC-3, 72 h, read-out: EC50 [nM]
assay metric: EC50

Ask: Item under review: "COc1cc2ncnc(Nc3ccc(F)c(Cl)c3)c2cc1NC(=O)/C=C/CN1CCCCC1" . Reported EC50?
Reply: > 10000 nM

Ask: Also check "C=CC(=O)N1CCC([C@@H]2CCNc3c(C(N)=O)c(-c4ccc(Oc5ccccc5)cc4)nn32)CC1"
Reply: > 10000 nM

Ask: Also check "CN(C)C[C@@H]1CCn2cc(c3ccccc32)C2=C(C(=O)NC2=O)c2cn(c3ccccc23)CCO1"
Reply: > 10000 nM

###

Hi there, I'd appreciate the recorded EC50 for every entry that follows.
# Tested on: MiaPaCa-2
# experiment summary: cells
# Set-up: ATPlite luminescence viability of PDAC cell lines, 11-dose single-agent curves, 4-parameter fit
# condition details: Homo sapiens, MIA PaCa-2, 72 h, read-out: EC50 [nM]

Ask: EC50 of CC(C)N1CCN(Cc2cnc(-c3cc(-c4cccc5[nH]ccc45)cc4[nH]ncc34)o2)CC1 [Nemiralisib] on MiaPaCa-2?
Reply: > 10000 nM

Ask: Also check CCN1C(=O)N(c2c(F)c(OC)cc(OC)c2F)Cc2cnc3[nH]c(CN4CCOCC4)cc3c21 [Pemigatinib]
Reply: > 10000 nM

Ask: Also check C=CC(=O)Nc1cc(Nc2nccc(-c3cn(C)c4ccccc34)n2)c(OC)cc1N(C)CCN(C)C [Osimertinib]
Reply: > 10000 nM

###

Hi there, I'd appreciate the recorded EC50 for every entry that follows.
# Test system: PANC-1
# experiment summary: cells
# Set-up: Viability of PDAC cell lines, ATPlite luminescence, 11-dose single-agent curve fit
# condition details: Homo sapiens, PANC-1, 72 h, read-out: EC50 [nM]

Ask: Item under review: C=CC(=O)Nc1cccc(Oc2nc(Nc3ccc(N4CCN(C)CC4)cc3)nc3ccsc23)c1 [Olmutinib] . Reported EC50?
Reply: > 10000 nM

Ask: Also check Cc1nc(NC(=O)N2CCC[C@H]2C(N)=O)sc1-c1ccnc(C(C)(C)C(F)(F)F)c1 [Alpelisib]
Reply: > 10000 nM

Ask: Also check Cc1cc2c(F)c(Oc3ncnn4cc(OC[C@@H](C)O)c(C)c34)ccc2[nH]1 [Brivanib]
Reply: > 10000 nM
